Test: JC-1 mitochondrial signal, unstimulated MM1S myeloma – cell-based, JC-1 fluorescence, 24 h, 100 nL compound, profiling panel (AID 1170); also: test concentration not given here
Conditions: MM1S mitochondrial potential, higher = more signal
recorded-metric: z-score

1. Cn1c2c(c3ccccc31)C(=O)C1NC2C=CC1(C)C(=O)OCc1ccccc1 (centres undefined) | 0.426
2. NC(=O)NCC#Cc1ccc2c(c1)[C@]1(C(=O)N2)[C@H](C(=O)NC[C@H](O)c2ccccc2)[C@H]2C(=O)O[C@H](c3ccccc3)[C@H](c3ccccc3)N2[C@@H]1c1ccccc1OCCO | -1.01
3. C=CCC(OC(C)=O)[C@@H]1[C@@H](N(Cc2cc3ccccc3o2)C(=O)c2cccc3ccccc23)c2cc(OCCCO)ccc2N1C(=O)Cc1ccc(OC)cc1 (some centres undefined) | 0.177
4. CN(C)CCCCCCNC(=O)[C@@H]1C[C@@H]2C(=O)NCC(=O)N2[C@@H]1c1cccc(OCCO)c1 | -0.659

----------
Assay: probe aNOTCH3 binding on compound microarray – biochemical, small-molecule microarray, 635/667 nm fluorescence, primary screen (AID 1120);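 also: probe is a biotin-tagged antibody raised against NOTCH3 rather than NOTCH3 protein; score merges spot fluorescence near 667 nm with spot signal to noise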
Settings: higher = more signal
recorded-metric: composite z-score

1. Cc1c(NC(=O)/C(C#N)=C/C=C/c2ccccc2)c(=O)n(-c2ccccc2)n1C | 0.0859
2. COC(=O)[C@@]1(Cc2ccccc2)[C@H]2c3cc(C(=O)N(C)C)n(Cc4cc(F)c(F)c(F)c4)c3C[C@H]2CN1C(=O)c1ccccc1 | 0.692
3. CC(=O)N1Cc2ccccc2C[C@@]2(N=C(c3ccc(OCCCO)cc3)O[C@H]2c2ccccc2)C1=O | 0.22
4. O=C1OCC=C[C@H]2OC34C=CCN(CCN5CCOCC5)C(=O)[C@H]3N(CCCCCCO)C(=O)[C@@H]4[C@@H]12 (stereo not given in full) | 0.0208
5. C=CCOC(=O)[C@@H]1[C@H]2C(=O)O[C@H](c3ccccc3)[C@H](c3ccccc3)N2[C@H](c2ccc(OCCOC(=O)[C@H]3C[C@H]4C(=O)N[C@@H](CC(C)C)C(=O)N4[C@H]3c3cccc(OCCO)c3)cc2)[C@@]12C(=O)Nc1ccc(I)cc12 | 0.19

----------
Molecular target: NADPH oxidase 4 (Homo sapiens) (UniProt Q9NPH5)
Sequence (Q9NPH5 whole entry, looked up): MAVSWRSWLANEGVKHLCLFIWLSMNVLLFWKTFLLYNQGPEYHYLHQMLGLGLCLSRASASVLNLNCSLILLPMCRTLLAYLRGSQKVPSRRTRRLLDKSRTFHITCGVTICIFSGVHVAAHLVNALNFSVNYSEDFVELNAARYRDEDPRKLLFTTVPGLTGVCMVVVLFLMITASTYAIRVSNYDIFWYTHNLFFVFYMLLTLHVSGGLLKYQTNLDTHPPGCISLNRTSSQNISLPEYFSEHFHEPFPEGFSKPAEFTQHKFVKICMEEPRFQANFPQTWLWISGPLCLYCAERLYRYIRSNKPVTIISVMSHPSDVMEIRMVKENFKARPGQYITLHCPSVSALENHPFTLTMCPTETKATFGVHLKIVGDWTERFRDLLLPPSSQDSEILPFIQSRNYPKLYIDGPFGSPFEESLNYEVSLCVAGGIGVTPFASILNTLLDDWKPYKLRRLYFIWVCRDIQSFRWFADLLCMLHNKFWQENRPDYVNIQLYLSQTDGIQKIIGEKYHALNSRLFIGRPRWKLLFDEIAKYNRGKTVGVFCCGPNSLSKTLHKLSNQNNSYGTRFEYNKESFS
Experiment: compounds shifting NOX4 Amplex Red fluorescence – cell-based, HEK293-NOX4, tetracycline-induced, NOX inhibitor project, primary screen (AID 1160)
Settings: HEK293-NOX4, Amplex Red H2O2 fluorescence, 45 min; higher = more signal, called active from +8 up or from −8 down
Criterion: z-score meeting or surpassing -1. Met: y. Not met: n.

1) COc1ccc(C#Cc2ccc3c(c2)[C@]2(C(=O)N3)[C@H](C(=O)N3CCc4cc(OC)c(OC)cc4C3)[C@H]3C(=O)O[C@H](c4ccccc4)[C@H](c4ccccc4)N3[C@@H]2c2ccc(OCCO)cc2)cc1 | y
2) C=C(C(=O)CC[C@H](OC(=O)c1cccnc1)c1ccccc1OCCO)C(C)C | y
3) C=C(CCCC)/C(=C/C[C@H](OC(C)=O)c1ccc(CO)o1)c1cc(C(=O)OC)ccc1OC | y
4) O=c1cccc(-c2cccc3ccccc23)o1 | n
5) COc1ccc(C#Cc2ccc3c(c2)[C@]2(C(=O)N3)[C@H](c3ccc(OCCO)cc3)N3[C@H](c4ccccc4)[C@H](c4ccccc4)OC(=O)[C@H]3[C@@H]2C(=O)Nc2nc3ccccc3s2)cc1 | y
6) CCCCC(=C=CC[C@H](O)c1ccccc1OCCO)C[C@H](O)c1cc(Cl)cc(Cl)c1O | n
7) CCN(CC)c1ccc(N2CC=CC34O[C@@H]5C=CCCOC(=O)C5[C@H]3C(=O)N(CCCO)[C@@H]4C2=O)cc1 (some centres not stated) | n

----------
Experiment: blockers of DNA damage checkpoint Chk1 activation – imaging, HeLa, hydroxyurea, phospho-Chk1 antibody, percent positive cells, primary screen (AID 1186)
Conditions: hydroxyurea-induced phospho-Chk1 immunofluorescence imaging, higher = more signal
z-score below -0.09 gives Criterion not met; z-score at or above it gives Criterion met.

1) COc1ccc(C#Cc2ccc3c(c2)[C@]2(C(=O)N3)[C@H](C(=O)N3CCN(c4ncccn4)CC3)[C@H]3C(=O)O[C@H](c4ccccc4)[C@H](c4ccccc4)N3[C@@H]2c2ccc(O)cc2)cc1 | Criterion not met
2) C=C(CCCC)/C(=C/C[C@H](OC(C)=O)c1ccc(CO)o1)c1cc(C(=O)OC)ccc1OC | Criterion not met
3) C=CCC(OC(C)=O)[C@@H]1[C@@H](N(Cc2ccc(-c3cccc(C(F)(F)F)c3)o2)C(=O)Cc2ccc(OC)cc2)c2cc(OCCCO)ccc2N1C(=O)Cc1ccc(OC)cc1 (some centres not stated) | Criterion not met
4) CCCNC(=O)[C@@]1(C)c2ccccc2C(=O)N(Cc2cc(F)cc(C(F)(F)F)c2)[C@H]1c1ccc(CO)cc1 | Criterion met
5) O=C1C2C=CC(C(O)C3CC=CCC3)N(n3cnnc3)C2C(=O)N1Cc1ccccc1 (configuration not stated) | Criterion met
6) CCCCCCC#C[Si](O[C@H](c1ccccc1)c1cn([C@H](C)c2ccccc2)nn1)(C(C)C)C(C)C | Criterion not met

----------
Assay: viability profiling in MM1S myeloma cells – cell-based, resazurin fluorescence, basal, 24 h, PK04 Diversity Set, profiling panel (AID 1174);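 also: MM1S multiple myeloma cell line; test concentration not given here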
Conditions: higher = more signal, called active from +8 up or from −8 down
z-score vs -1: at or above is YES, below is NO.

1) O=C(NCC(F)(F)F)[C@@H]1c2ccccc2C(=O)N(Cc2ccccc2)[C@H]1c1ccc(CO)cc1 | YES
2) Cc1cc(C)c(C(O)C2C=CC3C(=O)NC(=O)C3N2Nc2ccccn2)c(C)c1 (centres undefined) | NO
3) O=C1C2C=CC(C(O)CCc3ccccc3)N(Nc3ccccc3)C2C(=O)N1c1ccccc1 (centres undefined) | NO
4) CC(C)NC(=O)[C@@H]1c2ccccc2C(=O)N(C2CCCCC2)[C@H]1c1ccc(CO)cc1 | YES
5) [N-]=[N+]=NCc1ccccc1[C@@H]1OC(c2ccc(OCCCO)cc2)=N[C@]1(Cc1ccccc1)C(=O)O | YES
6) C=CCNC(=O)[C@H]1[C@@H]2C(=O)O[C@@H](c3ccccc3)[C@@H](c3ccccc3)N2[C@@H](c2ccc(OCCO)cc2)[C@]12C(=O)N(C(=O)OCCOC)c1ccc(C#CC3(O)CCCCCC3)cc12 | YES
7) Cc1ccc(S[C@]2(C(=O)NCc3ccccc3)CC(=O)N(Cc3cc(C(F)(F)F)cc(C(F)(F)F)c3)[C@@H]2c2ccc(CO)cc2)cc1 | YES
8) CCCC[C@H]1OB(O)C[C@H]2C1=C(C)Cn1c(=O)n(-c3ccccc3)c(=O)n12 | YES
9) O=C1O[C@@H](c2ccccc2)[C@@H](c2ccccc2)N2[C@@H](c3ccc(O)cc3)[C@]3(C(=O)Nc4ccc(C#CCCO)cc43)[C@@H](C(=O)N3CCCCCCC3)[C@H]12 | YES
10) CC(C)C(CO)N1C(=O)[C@@H]2[C@H]3C(=O)OCC=C[C@H]3OC23C=CCN(c2ccc4ccccc4c2)C(=O)[C@@H]13 (some centres undefined) | YES
11) O=C1O[C@@H](c2ccccc2)[C@@H](c2ccccc2)N2[C@@H](c3ccc(O)cc3)[C@]3(C(=O)Nc4ccccc43)[C@@H](C(=O)N3CCCCCCC3)[C@H]12 | NO
12) C=CCN1C(=O)[C@@]2(O[C@@H](CCO)[C@H]([Si](C)(C)c3ccc(OC)cc3)[C@H]2C)c2cc(NC(C)=O)ccc21 | NO
13) O=S(=O)(NCCCO)c1ccc(Br)cc1 | YES
14) COC(=O)[C@@]1(Cc2ccccc2)[C@H]2c3cc(C(=O)N(C)C)n(Cc4ccccc4)c3C[C@H]2CN1C(=O)c1ccccc1 | NO
15) C=CCN1Cc2ccccc2C[C@]2(N=C(c3ccc(OCCCO)cc3)O[C@@H]2c2ccccc2)C1=O | NO
16) O=C1OCC=C[C@H]2OC34C=CCN(Cc5ccccc5)C(=O)[C@H]3N(CCCO)C(=O)[C@@H]4[C@@H]12 (some centres undefined) | YES
17) CCOC(=O)C[C@H]1[C@H](OC(=O)c2cc3ccccc3oc2=O)[C@@H](NC(=O)c2ccc3ccccc3c2)c2cc(OCCCO)ccc2N1C(=O)c1ccccc1 | YES

----------
Experiment: probe aNOTCH3 binding on compound microarray – biochemical, small-molecule microarray, 635/667 nm fluorescence, primary screen (AID 1120);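 also: probe is a biotin-tagged antibody raised against NOTCH3 rather than NOTCH3 protein; score merges spot fluorescence near 667 nm with spot signal to noise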
Conditions: higher = more signal
recorded-metric: composite z-score

1. CC(=O)NCCCC[C@@H]1NC(=O)[C@@H]2C[C@H](C(=O)NCc3ccc(F)cc3)[C@H](c3ccc(O)cc3)N2C1=O | -0.0391
2. Cc1ccc(F)cc1S(=O)(=O)N[C@@H]1CCN(Cc2ccc(C(F)(F)F)cc2)C1 | -0.159
3. C=CCNC(=O)[C@H]1[C@@H]2C(=O)O[C@@H](c3ccccc3)[C@@H](c3ccccc3)N2[C@@H](c2ccc(O)cc2)[C@]12C(=O)Nc1ccc(C#Cc3ccc(OC)cc3)cc12 | -0.0903
4. O=C(NCC(O)CO)[C@@]1(Cc2ccccc2)N=C(c2ccc(OCCCO)cc2)O[C@H]1c1ccccc1 (stereo not given in full) | 0.331
5. CC(C)[C@H]1COC(=O)N1C(=O)[C@H]1[C@@H](c2ccccc2)N(c2ccccc2)O[C@@H]1C | 0.0893
6. C=CC[C@@]1(C(=O)OC)N=C(c2ccc(OCCCO)cc2)O[C@@H]1c1ccccc1CN=[N+]=[N-] | 0.0419
7. Cc1ccc(S[C@]2(C(=O)NCCN3CCOCC3)CC(=O)N(C3CCCCC3)[C@@H]2c2ccc(CO)cc2)cc1 | 0.0525
8. C=CCC(OC(C)=O)[C@@H]1[C@@H](N(Cc2ccc(-c3ccccc3)cc2)C(=O)c2ccc(C)cc2)c2cc(OCCCO)ccc2N1C(=O)c1ccc2ccccc2n1 (stereo not given in full) | 0.246
9. COCC1C2CC[C@H]3C(OCc4ccc(F)cc4C(F)(F)F)OC[C@]4(C)[C@H]3C2=C(CN4C(=O)OC(C)(C)C)[C@H](C)C1COC (stereo not given in full) | 0.202
10. C=CCC(OC(C)=O)[C@@H]1[C@@H](N(Cc2cc3ccccc3o2)C(=O)c2cccc3ccccc23)c2cc(OCCCO)ccc2N1C(=O)Cc1ccc2ccccc2c1 (stereo not given in full) | 0.0496
11. NC(=O)NCC#Cc1ccc2c(c1)[C@]1(C(=O)N2)[C@H](c2ccc(O)cc2)N2[C@H](c3ccccc3)[C@H](c3ccccc3)OC(=O)[C@H]2[C@@H]1C(=O)N1CCN(c2ncccn2)CC1 | 0.191
12. Cc1ccc(S[C@]2(C(=O)NCCCN(C)C)CC(=O)N(Cc3ccccc3)[C@@H]2c2ccc(CO)cc2)cc1 | -0.279
13. COc1ccc([Si](C)(C)[C@@H]2[C@@H](CCO)O[C@]3(C(=O)N(Cc4ccccc4)c4ccc(N(C=O)c5ccccc5)cc43)[C@H]2C)cc1 | -0.159
14. C=C(COC)C(=O)CC[C@@H](OC(=O)c1ccccc1-c1ccccc1C(=O)O)c1ccc(CO)o1 | -0.154
15. C=C(/C(=C/C[C@@H](OC(C)=O)c1ccc(CO)o1)c1cnc2ccccc2c1)C(C)C | 0.12
16. Cc1ccc(S[C@]2(C(=O)NCC(F)(F)F)CC(=O)N(C3Cc4ccccc4C3)[C@@H]2c2ccc(CO)cc2I)cc1 | -0.207
17. O=C(NCC(O)CO)[C@@]1(Cc2ccccc2)COC(c2ccc(OCCCO)cc2)=N1 (stereo not given in full) | -0.0984
18. C=CC[C@@]1(C(=O)NCCN2CCOCC2)N=C(c2ccc(OCCCO)cc2)O[C@@H]1c1ccccc1CN=[N+]=[N-] | -0.434
19. CN1C(=O)C2C(C1=O)C1C=C(c3ccc(CO)cc3)C2C(C2CC2)N1Cc1sc2ccccc2c1Cl (stereo not given) | 0.248
20. O=P(NCC1(CC2(c3ccccc3)CO2)CC1)(c1ccccc1)c1ccccc1 (stereo not given) | -0.159
21. CN1C(=O)C2C(C1=O)C1C=C(c3ccc(CO)cc3)C2C(C2CC2)N1Cc1cc2c(cc1Br)OCO2 (stereo not given) | 0.211
22. O[C@@H](Cc1ccccc1)[C@@H](/C=C/c1ccccc1)NCc1ccccc1Br | -0.358
23. CCCC[C@@H]1C[C@H]1[C@@H](NC(=O)c1ccccc1)c1ccc(-c2ccccc2)cc1 | -0.0647
24. C=CCNC(=O)[C@H]1[C@@H]2C(=O)O[C@@H](c3ccccc3)[C@@H](c3ccccc3)N2[C@@H](c2ccc(OCCO)cc2)[C@]12C(=O)N(C(=O)OCCOC)c1ccc(C#CC3(O)CCCCCC3)cc12 | 0.373
25. CCCC[C@H]1C[C@@H]1[C@@H]1N(P(=O)(c2ccccc2)c2ccccc2)[C@](CO)(c2ccccc2)CC12CC2 | 0.112
26. O=C1C2C=CC(C(O)C3CC=CCC3)N(n3cnnc3)C2C(=O)N1Cc1ccccc1 (stereo not given) | -0.213
27. O=c1cccc(-c2ccc3ccccc3c2)o1 | -0.0766
28. COC(=O)[C@@]1(Cc2ccc(F)cc2)[C@H]2c3cc(C(=O)N4CCCC4)n(Cc4ccc(Cl)c(C(F)(F)F)c4)c3C[C@H]2CN1C(=O)c1ccccc1 | 1.53
29. COCCn1c(C(=O)N(C)C)cc2c1C[C@H]1CN(C(=O)c3ccccc3)[C@@](Cc3ccc(F)cc3)(C(=O)OC)[C@@H]21 | 0.073
30. Cc1cc(C)c(C(O)C2C=CC3C(=O)NC(=O)C3N2Nc2ccccn2)c(C)c1 (stereo not given) | 0.148
